- System: Plasmodium falciparum
- MEASUREMENT_NOTES: In vitro antimalarial activity against Plasmodium falciparum W2 in human erythrocytes by [3H]hypoxanthine uptake
- Type: functional, organism-based
- TEST_CONTEXT: Plasmodium falciparum
PROPERTY: pIC50
Scale note: pIC50 = -log10(concentration in M).

Illustrative cases are given below, each with its answer.
| CHEMICAL_STRING | STUDY_SYSTEM | pIC50 |
| --- | --- | --- |
| C=C[C@H]1C[N@+]2(Cc3cc(C(C)(C)C)c(OC)c(C(C)(C)C)c3)CC[C@H]1C[C@H]2[C@H](O)c1ccnc2ccc(OC)cc12 | Plasmodium falciparum | 6.42 |
| C=C[C@H]1C[N@+]2(Cc3cc(C(C)(C)C)c(OC)c(C(C)(C)C)c3)CC[C@H]1C[C@@H]2[C@@H](OCc1ccccc1)c1ccnc2ccc(OC)cc12 | Plasmodium falciparum | 6.39 |

Read the next record carefully.
[ask] Please give the measured pIC50 for this molecule: C=C[C@H]1C[N@+]2(Cc3cc(C(C)(C)C)c(OC)c(C(C)(C)C)c3)CC[C@H]1C[C@H]2[C@H](OCc1ccccc1)c1ccnc2ccc(OC)cc12
[reply] 6.21
